B1: CLCN6 (parent)
chain: ILRSQLVTLLVRGVCYSESQSSAS

variants of: B1; experiment: protein stability index of a GFP-peptide fusion (GPS, HEK-293T) (PSI 1-6); higher = more stable; conditions: c terminus: a fixed tail appended;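 note: lentivirally expressed fusions sorted by FACS into six bins by GFP to DsRed ratio, PSI derived from sequencing read proportions per bin multiplied by bin number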
Measured protein stability index of individual entries
Hey, just send me the number, nothing else.

Some variants with recorded protein stability index:
INSERT INTO assay_data (variant_descriptor, measured_quantity, measured_value) VALUES
  ('L6H', 'protein stability index', 2.17),
  ('V7S', 'protein stability index', 2.18);

For the variant shown here, "V7Q" , give the reported protein stability index.
2.43

For the variant shown here, "Y16K" , give the reported protein stability index.
1.32
